Below, each entry is listed with its recorded IC50.
Biological target: IDO (Homo sapiens)
Construct: endogenous in cells
Experiment: Hela cell-based IDO inhibitory activity test (IFNγ added)
Conditions: Hela cells with IFNγ, 48 hours incubation, OD 480 nm

Observe how each entry below is paired with its result.
GET /values?readout=IC50&system=IDO (Homo sapiens)&item= N#Cc1ccc(NC(=O)C[C@@H]2C[C@H]3CC(c4ccnc5ccc(F)cc45)C[C@H]3C2)cc1 (stereo partly shown)
≤ 5 nM

Param readout = IC50; param system = IDO (Homo sapiens); param query = CC#Cc1ccc(NC(=O)C(C)[C@H]2C[C@H]3C[C@@H](c4ccnc5ccc(F)cc45)C[C@H]3C2)nc1 (stereo partly shown) ; response: value
> 100 nM

Any idea what IC50 came out for O=C(C[C@H]1C[C@H]2CC(c3ccnc4ccc(F)cc34)C[C@H]2C1)Nc1ccc(Cl)nc1 (stereo partly shown) on IDO (Homo sapiens)?
≤ 5 nM

More entries:
Find IC50 (IDO (Homo sapiens)) for the entry CC(C(=O)Nc1ccc(Cl)cc1)[C@@H]1C[C@]2(C)C[C@H](c3ccnc4ccc(F)cc34)C[C@]2(C)C1 (stereo partly shown)
≤ 5 nM

----------
Molecular target: IDO (Homo sapiens, UniProt P14902)
Construct: endogenous in cells
Assay: Hela cell-based IDO inhibitory activity test (IFNγ added)
Details: Hela cells with IFNγ, 48 hours incubation, OD 480 nm
Recorded IC50 values for a group of compounds are listed next.

What value of IC50 has been reported for the following compound? O=C(C[C@@H]1C[C@@H]2C[C@H](c3ccnc4ccc(F)cc34)C[C@@H]2C1)NC1CCC(F)(F)CC1 [Compound 12]
25 to 100 nM

GET /values?readout=IC50&item= CC(C(=O)NC1CCOCC1)[C@H]1C[C@H]2C[C@@H](c3ccnc4ccc(F)cc34)C[C@H]2C1 (stereo partly shown) [Compound 3]
> 100 nM

Using the record for CC(C)(O)C#Cc1ccc(NC(=O)C[C@@H]2C[C@H]3CC(c4ccnc5ccc(F)cc45)C[C@H]3C2)nc1 (stereo partly shown) [Compound 103] , report its IC50.
> 100 nM

Value lookup for IC50; key = O=C(C[C@@H]1C[C@H]2CC(c3ccnc4ccc(F)cc34)C[C@H]2C1)Nc1ccc(Cl)cn1 (stereo partly shown) [Compound 21]
5 to 25 nM

// lookup IC50 for CC(C(=O)Nc1cccc(Cl)c1)[C@H]1C[C@H]2C[C@@H](c3ccnc4ccc(F)cc34)C[C@H]2C1 (stereo partly shown) [Compound 7]
5 to 25 nM

Further cases:
For CC(C(=O)Nc1ccc(I)cn1)C1C[C@H]2CC(c3ccnc4ccc(F)cc34)C[C@H]2C1 (stereo partly shown) [Compound 76] , what is its reported IC50?
≤ 5 nM

Which value of IC50 has been reported for CC(C)(C(=O)Nc1ccc(Cl)cn1)[C@H]1C[C@H]2C[C@@H](c3ccnc4ccc(F)cc34)C[C@H]2C1 [Compound 84] in the records?
> 100 nM

----------
Biological target: IDO (Homo sapiens, UniProt P14902)
Construct: endogenous in cells
Test: Hela cell-based IDO inhibitory activity test (IFNγ added)
Conditions: Hela cells with IFNγ, 48 hours incubation, OD 480 nm
pIC50: −log10 of the molar value.
observationType: pIC50

Query: pIC50; subject: `C#Cc1ccc(NC(=O)C2([C@H]3C[C@H]4C[C@@H](c5ccnc6ccc(F)cc56)C[C@H]4C3)CC2)cn1`
7.60 to 8.30

What does the record list as pIC50 for O=C(CC1=C[C@H]2C[C@@H](c3ccnc4ccc(F)cc34)C[C@H]2C1)Nc1ccc(Cl)cc1 (racemic) ?
≥ 8.30

Endpoint output: pIC50 of N#Cc1ccc(NC(=O)C[C@@H]2C[C@@H]3CC(c4ccnc5ccc(F)cc45)=C[C@@H]3C2)nc1 (racemic) . Value?
≥ 8.30

Others:
Query (compound): C[C@@H](C(=O)Nc1ccc(Cl)cn1)[C@H]1C[C@H]2CC(c3ccnc4ccc(F)cc34)C[C@H]2C1 (single isomer, unassigned) [Compound 26A] ; field requested: pIC50
≥ 8.30

Request the reported pIC50 associated with `CC(C)(C(=O)Nc1ccc(Cl)cn1)N1C[C@H]2C[C@@H](c3ccnc4ccc(F)cc34)C[C@H]2C1`
< 7.00

So what does the record say about pIC50 for O=C(C[C@@H]1C[C@@H]2C[C@H](c3ccnc4ccc(F)cc34)C[C@@H]2C1)Nc1ccc2c(c1)OCC1COCCN21 (some centres unmarked) ?
< 7.00

----------
Biological target: IDO (Homo sapiens)
Construct: endogenous in cells
Assay: Hela cell-based IDO inhibitory activity test (IFNγ added)
Conditions: Hela cells with IFNγ, 48 hours incubation, OD 480 nm
observationType: IC50

Value wanted: IC50 (IDO (Homo sapiens)) of entry CC#Cc1ccc(NC(=O)C(C)(C)[C@H]2C[C@H]3C[C@@H](c4ccnc5ccc(F)cc45)C[C@H]3C2)nc1 [Compound 90]
≤ 5 nM

Continuing:
IC50 of C#Cc1ccc(NC(=O)C[C@@H]2C[C@@H]3CC(c4ccnc5ccc(F)cc45)=C[C@@H]3C2)cn1 [Compound 64] on IDO (Homo sapiens)?
≤ 5 nM

Provide the documented IC50 with IDO (Homo sapiens) as the system for O=C(C[C@H]1C[C@H]2CC(c3ccnc4ccc(F)cc34)C[C@H]2C1)Nc1ccc2[nH]ncc2c1 (stereo partly shown) [Compound 14]
> 100 nM

Notebook entry, IDO (Homo sapiens) assay: IC50 of CC(C)(C(=O)Nc1ccc(Cl)nc1)[C@H]1C[C@H]2C[C@@H](c3ccnc4ccc(F)cc34)C[C@H]2C1 [Compound 85] = ?
5 to 25 nM

----------
Biological target: IDO (Homo sapiens, UniProt P14902)
Construct: endogenous in cells
Experiment: Hela cell-based IDO inhibitory activity test (IFNγ added)
Conditions: Hela cells with IFNγ, 48 hours incubation, OD 480 nm
Method: 2. Hela Cell-Based IDO Inhibitory Activity Test Method The first step: cell plating. Prepare complete medium and mix well. Cell lines that are in good growth state are selected. […] Take 70 μL of the supernatant and transfer to a 3635 UV plate, add 70 μL of the reaction solution, and shake for 2 minutes to make the reaction uniform. […] The 96-well plate was allowed to stand at room temperature for 10 minutes to stabilize the luminescence signal. […]
observationType: IC50

Give IDO (Homo sapiens, UniProt P14902) IC50 for `O=C(C[C@@H]1C[C@@H]2CC(c3ccnc4ccc(F)cc34)=C[C@@H]2C1)Nc1ccc(Cl)cc1`
≤ 5 nM

Lab request: please report IC50 under test system IDO (Homo sapiens, UniProt P14902) for `O=C(Nc1ccc(Cl)cn1)C1([C@@H]2C[C@H]3C[C@@H](c4ccnc5ccc(F)cc45)C[C@H]3C2)CC1`
≤ 5 nM

API: value(readout= IC50, system= IDO (Homo sapiens, UniProt P14902), query= `O=C(C[C@H]1C[C@@H]2CC(c3ccncc3F)=C[C@@H]2C1)Nc1ccc(Cl)cc1` )
> 100 nM

Form field - read-out: IC50; system: IDO (Homo sapiens, UniProt P14902); submitted item: O=C(C[C@@H]1C[C@@H]2C[C@@H](c3ccnc4ccc(F)cc34)C(O)[C@@H]2C1)Nc1ccc(Cl)cc1 (stereo partly drawn)
5 to 25 nM

State its IC50 on IDO (Homo sapiens, UniProt P14902): `C#Cc1ccc(NC(=O)C2([C@@H]3C[C@H]4C[C@@H](c5ccnc6ccc(F)cc56)C[C@H]4C3)CC2)cn1`
≤ 5 nM

---
IDO (Homo sapiens, UniProt P14902) / IC50 / C#Cc1ccc(NC(=O)C(C)[C@H]2C[C@H]3C[C@@H](c4ccnc5ccc(F)cc45)C[C@H]3C2)cc1 (stereo partly drawn) : value?
≤ 5 nM

Provide the documented IC50 with IDO (Homo sapiens, UniProt P14902) as the system for COc1ccc(NC(=O)C(C)[C@H]2C[C@H]3C[C@@H](c4ccnc5ccc(F)cc45)C[C@H]3C2)cn1 (stereo partly drawn)
5 to 25 nM

----------
Target: hIDO1 (Homo sapiens)
Construct: expressed in transfected cells; host or cells: HEK293T (293T) cells, transient transfection with Fugene 6
Sequence (P14902 whole entry): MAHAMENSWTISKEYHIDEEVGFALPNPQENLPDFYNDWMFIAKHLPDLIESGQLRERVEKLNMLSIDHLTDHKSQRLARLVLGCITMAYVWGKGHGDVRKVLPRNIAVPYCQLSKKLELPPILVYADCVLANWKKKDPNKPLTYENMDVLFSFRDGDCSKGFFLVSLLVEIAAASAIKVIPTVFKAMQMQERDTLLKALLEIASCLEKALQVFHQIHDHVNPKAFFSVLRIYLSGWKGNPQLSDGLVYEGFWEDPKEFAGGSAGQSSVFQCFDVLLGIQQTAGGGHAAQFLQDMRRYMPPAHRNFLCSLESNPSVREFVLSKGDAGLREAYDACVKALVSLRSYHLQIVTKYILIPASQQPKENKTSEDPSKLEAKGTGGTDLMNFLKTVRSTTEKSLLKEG
Test: IDO inhibition activity based on HEK293T cells transfected with hIDO1 plasmid
Assay type: cell-based
Details: HEK293T cells transfected with hIDO1, 16 hours incubation, OD 480 nm; read-out: IDO inhibitory activity of HEK293T cells (IC50)
observationType: IC50

Bench note: what IC50 did CC(C(=O)Nc1ccc(Cl)nc1)[C@@H]1C[C@]2(C)C[C@H](c3ccnc4ccc(F)cc34)C[C@]2(C)C1 (some centres unmarked) [Compound 42] show?
10 to 50 nM

***
Sample O=C(C[C@@H]1C[C@@H]2C[C@H](c3ccnc4ccc(F)cc34)C[C@@H]2C1)NC1CCC(F)(F)CC1 [Compound 12] — what was its IC50?
> 100 nM

What IC50 value was documented for this compound, CC(C(=O)Nc1ccc(Cl)nc1)N1C[C@H]2C[C@@H](c3ccnc4ccc(F)cc34)C[C@H]2C1 (some centres unmarked) [Compound 45] ?
10 to 50 nM

# lookup: IC50 of O=C(Cc1ccc(CC(C(=O)Nc2ccc(Cl)cc2)[C@H]2CC[C@@H](c3ccnc4ccc(F)cc43)CC2)cc1)NO (some centres unmarked) [Compound 10]
> 100 nM

Given the entry CC(C)(C(=O)Nc1ccc(C#N)cn1)[C@H]1C[C@H]2C[C@@H](c3ccnc4ccc(F)cc34)C[C@H]2C1 [Compound 88] , report its measured IC50.
≤ 10 nM

Quick one: IC50 of CC(C(=O)Nc1ccc(C#N)cn1)[C@H]1C[C@H]2C[C@@H](c3ccnc4ccc(F)cc34)C[C@H]2C1 (some centres unmarked) [Compound 73] ?
≤ 10 nM

Consider the compound C#Cc1ccc(NC(=O)C(C)(C)[C@H]2C[C@H]3C[C@@H](c4ccnc5ccc(F)cc45)C[C@H]3C2)cn1 [Compound 87] and give its measured IC50.
≤ 10 nM

Need IC50, item C/C(C(=O)Nc1ccc(Cl)cc1)=C1\C[C@@H]2C[C@H](c3ccnc4ccc(F)cc34)C[C@@H]2C1 [Compound 68]
≤ 10 nM

Quick check: IC50 of O=C(C[C@@H]1C[C@@H]2C[C@@H](Oc3ccnc4ccccc34)C[C@@H]2C1)Nc1ccc(Cl)cc1 [Compound 51] ?
> 100 nM

Name the recorded IC50 for O=C(C[C@@H]1C[C@@H]2CC(c3ccnc4ccc(F)cc34)=C[C@@H]2C1)Nc1ccc(Cl)cc1 [Compound 11] .
10 to 50 nM

For C#Cc1ccc(NC(=O)C(C)(C)[C@H]2C[C@H]3C[C@@H](c4ccnc5ccc(F)cc45)C[C@H]3C2)nc1 [Compound 86] , what is its reported IC50?
≤ 10 nM

Entry CC(C(=O)Nc1ccc(Cl)nc1)[C@H]1C[C@H]2C[C@@H](c3ccnc4ccc(F)cc34)C[C@H]2C1 (some centres unmarked) [Compound 27] : reported IC50 = ?
10 to 50 nM

So what's the measured IC50 for this one? CC(C(=O)Nc1ccc(Cl)cc1)[C@H]1C[C@H]2C[C@@H](c3ccnc4ccc(F)cc34)C[C@H]2C1 (mixture of isomers) [Compound 1]
≤ 10 nM

I'd like to know its IC50. The compound in question is O=C(Nc1ccc(Cl)cn1)C1([C@H]2C[C@H]3C[C@@H](c4ccnc5ccc(F)cc45)C[C@H]3C2)CC1 [Compound 95]
≤ 10 nM

Looking for the measured IC50 of O=C(Nc1ccc(Cl)cn1)C1([C@@H]2C[C@H]3C[C@@H](c4ccnc5ccc(F)cc45)C[C@H]3C2)CC1 [Compound 92] , can you help?
≤ 10 nM

Entry under review: C[C@H](C(=O)Nc1ccc(Cl)cc1)[C@H]1C[C@H]2C[C@@H](c3ccnc4ccc(F)cc34)C[C@H]2C1 (single isomer, unassigned) [Compound 1B] . Reported IC50?
≤ 10 nM

Data request, read-out IC50, for COc1ccc(NC(=O)C(C)[C@H]2C[C@H]3C[C@@H](c4ccnc5ccc(F)cc45)C[C@H]3C2)cn1 (some centres unmarked) [Compound 6]
10 to 50 nM

Which measured IC50 value corresponds to N#Cc1ccc(NC(=O)C2([C@@H]3C[C@H]4C[C@@H](c5ccnc6ccc(F)cc56)C[C@H]4C3)CC2)nc1 [Compound 94] ?
10 to 50 nM

Give the measured IC50 of C#Cc1ccc(NC(=O)C2([C@@H]3C[C@H]4C[C@@H](c5ccnc6ccc(F)cc56)C[C@H]4C3)CC2)cn1 [Compound 93] .
≤ 10 nM

Recorded IC50 for CC(C(=O)Nc1ccc(Cl)cc1)[C@@H]1C[C@H]2C[C@@H](c3ccnc4ccc(F)cc34)C[C@H]2C1 (some centres unmarked) [Compound 4] , please?
10 to 50 nM
